- TESTED TARGET: T1, mouse B7H3-His (mouse, UniProt Q8VE98 29-244, limits assumed)
- T1 construct: also called recombinant mouse B7H3-His protein; not shown: His tag
- T1 sequence (looked up): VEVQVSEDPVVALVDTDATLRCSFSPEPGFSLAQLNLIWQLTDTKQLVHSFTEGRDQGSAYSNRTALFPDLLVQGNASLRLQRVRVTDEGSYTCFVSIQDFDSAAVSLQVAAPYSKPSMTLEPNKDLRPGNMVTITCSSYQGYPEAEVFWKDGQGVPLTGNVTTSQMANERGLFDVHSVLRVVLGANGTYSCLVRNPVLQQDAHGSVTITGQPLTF
- PROTOCOL DETAILS: phage ELISA, cross-species
# ELISA signal values compiled below
REPORTED ENDPOINT: ELISA signal

[
  {
    "BINDER": "RWG4 (VHH, Camel VHH; tag not described; also called camel antibody RWG4) VHH: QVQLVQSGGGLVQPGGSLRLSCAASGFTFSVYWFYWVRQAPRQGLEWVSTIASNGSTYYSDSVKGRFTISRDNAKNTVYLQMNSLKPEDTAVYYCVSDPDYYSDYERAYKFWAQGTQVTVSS",
    "REPORTED ENDPOINT": "ELISA signal",
    "NUMERIC RESULT": 0.0665
  },
  {
    "BINDER": "RWD9 (VHH, Camel VHH; tag not described; also called camel antibody RWD9) VHH: EVQLVESGGGLVQPGGSLSVSCAASGFTFSVYWFYWVRQAPRQGLEWVSTIASNGSTYYSDSVKGRFTISRDNAKNTVYLQMNSLKPEDTAVYYCVSDPDYYSDYERAYKFWAQGTQVTVSS",
    "REPORTED ENDPOINT": "ELISA signal",
    "NUMERIC RESULT": 0.0782
  },
  {
    "BINDER": "RWC3 (VHH, Camel VHH; tag not described; also called camel antibody RWC3) VHH: QVQLVESGGGLVQPGGSLSVSCAASGFTFSVYWFYWVRQAPRQGLEWVSTIASNGSTYYSDSVKGRFTISRDNAKNTVYLQMNSLKPEDTAVYYCVSDPDYYSDYERAYKFWAQGTQVTVSS",
    "REPORTED ENDPOINT": "ELISA signal",
    "NUMERIC RESULT": 0.0759
  }
]

From: patent US20220380471A1
